Test system: plasma cholesterol
test: Cholesterol lowering in hypercholesterolemic rats
Format: in vivo
condition_context: Rattus norvegicus, po; delivered p.o. (0.2 mg/kg/d); percentage change from pre-dose cholesterol; read-out: % Cholesterol Lowering
readout_kind: change in vivo at 0.2 mg/kg/day (%)

> print(dat)
                                   compound           tested.on  quantitative.result
1  Cc1cc(OCP(=O)(O)O)cc(C)c1Cc1ccc(O)c(Cc2ccc(F)cc2)c1 [Compound 40]  plasma cholesterol                -27.3
2  Cc1cc(OCP(=O)(O)O)cc(C)c1Cc1ccc(O)c(-c2ccccc2)c1 [Compound 7-1]  plasma cholesterol                -12.2
3  CC(C)c1cc(Oc2c(Br)cc(NCP(=O)(O)O)cc2Br)ccc1O [Compound 22-1]  plasma cholesterol                -19.9
4  Cc1cc(OCP(=O)(O)O)c(I)c(C)c1Cc1ccc(O)c(C(C)C)c1 [Compound 46]  plasma cholesterol                -23.8
5  O=P(O)(O)Cc1cc(Cl)c(Oc2ccc(O)c(Cc3ccc(F)cc3)c2)c(Cl)c1 [Compound 11]  plasma cholesterol                 -5.1
6  Cc1cc(OCP(C)(=O)O)cc(C)c1Cc1ccc(O)c(C(C)C)c1 [Compound 70]  plasma cholesterol                -32.8
7  CCC(C)c1cc(Cc2c(C)cc(OCP(=O)(O)O)cc2C)ccc1O (stereo not drawn) [Compound 7-3]  plasma cholesterol                -36.5
8  CC(C)c1cc(Oc2c(Br)cc(CP(C)(=O)O)cc2Br)ccc1O [Compound 71]  plasma cholesterol                -54.4
9  Cc1cc2[nH]c(P(=O)(O)O)cc2c(C)c1Oc1ccc(O)c(C(C)C)c1 [Compound 66]  plasma cholesterol                -12.5

The reported numbers originate from patent US20090028925A1.
